# MIC per record follows
# Tested on: Staphylococcus aureus
# Procedure Text: Antibacterial activity against Staphylococcus aureus NCIM-2901 by standard agar method
# Format: functional
Readout Type: MIC

[[record]]
compound = "COc1ccc2cc(C3C4=C(CC(C)(C)CC4=O)n4c(=O)c5ccccc5c(=O)n43)c3nnnn3c2c1 (centres undefined)"
readout_type = "MIC"
val = "195 µg/mL"

[[record]]
compound = "Cc1cccc2cc(C3C4=C(CC(C)(C)CC4=O)n4c(=O)c5ccccc5c(=O)n43)c3nnnn3c12 (centres undefined)"
readout_type = "MIC"
val = "91.5 µg/mL"

[[record]]
compound = "Cc1ccc2c(c1)cc(C1C3=C(CC(C)(C)CC3=O)n3c(=O)c4ccccc4c(=O)n31)c1nnnn12 (centres undefined)"
readout_type = "MIC"
val = "225 µg/mL"

[[record]]
compound = "COc1ccc2c(c1)cc(C1C3=C(CC(C)(C)CC3=O)n3c(=O)c4ccccc4c(=O)n31)c1nnnn12 (centres undefined)"
readout_type = "MIC"
val = "225 µg/mL"

